Reported inhibition at 100 µg/mL values for the following compounds.
Target: egg albumin (Gallus gallus, UniProt P01012)
Sequence (P01012 2-386): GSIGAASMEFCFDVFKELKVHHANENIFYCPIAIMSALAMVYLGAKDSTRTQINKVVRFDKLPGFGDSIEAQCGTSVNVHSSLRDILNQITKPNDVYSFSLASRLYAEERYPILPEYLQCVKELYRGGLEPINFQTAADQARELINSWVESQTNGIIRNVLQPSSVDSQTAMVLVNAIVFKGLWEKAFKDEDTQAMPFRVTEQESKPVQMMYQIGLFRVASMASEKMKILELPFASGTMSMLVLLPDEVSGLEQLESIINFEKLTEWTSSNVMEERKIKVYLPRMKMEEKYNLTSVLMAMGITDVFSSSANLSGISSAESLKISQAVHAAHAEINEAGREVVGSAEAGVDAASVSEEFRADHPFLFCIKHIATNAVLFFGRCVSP
Test: Inhibition of protein denaturation method
Type: biochemical
Conditions: read-out: Inhibition of protein denaturation (%)

Compound | inhibition at 100 µg/mL (%)
NC1=NC(c2ccccc2O)n2nc(C(=O)Nc3ccc(S(N)(=O)=O)cc3)nc2N1 (centres unmarked) | 88.2
NC1=NC(C2N=C(N)Nc3nc(C(=O)Nc4ccc(S(N)(=O)=O)cc4)nn32)n2nc(C(=O)Nc3ccc(S(N)(=O)=O)cc3)nc2N1 (centres unmarked) | 59.5
NC1=NC(/C=C/c2ccccc2)n2nc(C(=O)Nc3ccc(S(N)(=O)=O)cc3)nc2N1 (centres unmarked) | 58.4
Cc1ccccc1C1N=C(N)Nc2nc(C(=O)Nc3ccc(S(N)(=O)=O)cc3)nn21 (centres unmarked) | 64.5
NC1=NC(c2ccccc2Cl)n2nc(C(=O)Nc3ccc(S(N)(=O)=O)cc3)nc2N1 (centres unmarked) | 64.2

----------
The following compounds are listed with their measured Selectivity index values.
Biological target: COX-2 (Homo sapiens, UniProt P35354)
Sequence (P35354 18-604): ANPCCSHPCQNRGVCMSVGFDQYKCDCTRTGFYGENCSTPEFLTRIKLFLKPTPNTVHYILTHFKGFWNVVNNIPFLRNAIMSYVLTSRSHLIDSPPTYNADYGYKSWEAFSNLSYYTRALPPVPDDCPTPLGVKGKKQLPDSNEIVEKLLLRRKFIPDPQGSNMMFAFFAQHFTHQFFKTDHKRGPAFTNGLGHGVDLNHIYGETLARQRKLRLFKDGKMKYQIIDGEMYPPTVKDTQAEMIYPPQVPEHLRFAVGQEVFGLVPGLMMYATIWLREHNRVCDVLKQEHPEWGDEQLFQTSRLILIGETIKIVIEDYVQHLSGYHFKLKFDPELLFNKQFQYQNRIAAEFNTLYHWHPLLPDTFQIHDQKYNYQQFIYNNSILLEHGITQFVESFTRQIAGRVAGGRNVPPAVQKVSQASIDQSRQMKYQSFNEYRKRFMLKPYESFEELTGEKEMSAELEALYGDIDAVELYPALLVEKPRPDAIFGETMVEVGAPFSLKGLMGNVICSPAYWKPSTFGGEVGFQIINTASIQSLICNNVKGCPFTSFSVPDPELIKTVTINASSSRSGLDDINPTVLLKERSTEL
Assay: In vitro COX inhibitory assay
Type: biochemical
Conditions: COX-1/COX-2 selectivity index
Reported metric: Selectivity index

Compound | Experimental value
Cc1ccccc1C1N=C(N)Nc2nc(C(=O)Nc3ccc(S(N)(=O)=O)cc3)nn21 (stereo not drawn) [Compound 5] | 1.84
CN(C)c1ccc(C2N=C(N)Nc3nc(C(=O)Nc4ccc(S(N)(=O)=O)cc4)nn32)cc1 (stereo not drawn) [Compound 12] | 2.06
NC1=NC(c2ccccc2O)n2nc(C(=O)Nc3ccc(S(N)(=O)=O)cc3)nc2N1 (stereo not drawn) [Compound 11] | 1.46

----------
Target: egg albumin (Gallus gallus)
Experiment: Inhibition of protein denaturation method
Assay type: biochemical
Settings: read-out: Inhibition of protein denaturation (%)

Compound | Measurement unit | inhibition at 50 µg/mL
Cc1ccccc1C1N=C(N)Nc2nc(C(=O)Nc3ccc(S(N)(=O)=O)cc3)nn21 (stereo not drawn) | % | 59.7
COc1ccc(C2N=C(N)Nc3nc(C(=O)Nc4ccc(S(N)(=O)=O)cc4)nn32)cc1 (stereo not drawn) | % | 51
NC1=NC(c2cccc3ccccc23)n2nc(C(=O)Nc3ccc(S(N)(=O)=O)cc3)nc2N1 (stereo not drawn) | % | 55

Data credit: paper PMC11146149
